Molecular target: FRMPD2_3, Q68DX3
Sequence (Q68DX3 1073-1166): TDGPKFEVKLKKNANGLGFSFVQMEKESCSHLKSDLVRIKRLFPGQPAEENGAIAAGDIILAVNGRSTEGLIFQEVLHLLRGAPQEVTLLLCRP
Assay: holdup assay
Parameters: key: below the threshold = too weak to quantify, mostly under pKd 3.1 to 4
Settings: plain residues with an end cap or a label only (N-terminal biotin on a linker: ado-ado)
TEST_READOUT: pKd

[
  {
    "BINDER": "KIEDVEITLV [FCHSD2, O94868]",
    "TEST_READOUT": "pKd",
    "RECORDED_MEASUREMENT": "below the threshold"
  },
  {
    "BINDER": "QKNKDREYYV [NRXN3, Q9HDB5]",
    "TEST_READOUT": "pKd",
    "RECORDED_MEASUREMENT": 4.38
  },
  {
    "BINDER": "EPAKETTTNV [SLC2A3, P11169]",
    "TEST_READOUT": "pKd",
    "RECORDED_MEASUREMENT": "below the threshold"
  },
  {
    "BINDER": "LLQEEWETVM [PTH1R, Q03431]",
    "TEST_READOUT": "pKd",
    "RECORDED_MEASUREMENT": "below the threshold"
  }
]
